Numbers sourced from the METLIN SMRT retention time set (Domingo-Almenara et al. 2019).

- Run description: gradient 5% acetonitrile 3 min, to 50% in 2 min, to 85% in 15 min, held 3 min, 100 µL/min
- Cond: column: Zorbax Extend-C18 2.1 x 50 mm; eluents: water / acetonitrile, 0.1% formic acid
// RP-LC retention time lookup, one value per entry
Give just the number in s; leave the unit off.

Look over these answered cases.
Compound	RP-LC retention time, s
Cc1cc(N(CCO)CCO)n2nc(-c3ccc(C(C)(C)C)cc3)nc2n1	687
Cc1ncc(Cl)cc1NCc1ccc(C(=O)N[C@@H](CC2CCCC2)C(=O)NC2CC2)s1	837

Sample CN1CCN(C(=O)c2cc3n(n2)CC(C)(C(=O)NCc2ccccc2)N(C)C3=O)CC1 (centres undefined) ; RP-LC retention time observed: 572

Sample Cc1ccc(NC(=O)C2CCN(c3nc(C4CCC4)nc4csc(C)c34)CC2)c(C)c1 ; RP-LC retention time observed: 804

Sample Cc1ccc(NC(=O)Nc2c(-c3ccc(F)cc3)nc3ccccn23)cc1C ; RP-LC retention time observed: 714
